Molecular target: HIV protease (Human immunodeficiency virus type 1 group M subtype B, UniProt P04585)
Construct: and purified protease
Assay: HIV Protease Assay
Type: biochemical
Details: pH 5.5, 10 μM inhibitor, 4% DMSO, 450 μM substrate, pH 5.5, 30 minutes at 37° C., RP-HPLC; read-out: HIV Protease % Inhibition at 10 μM
For each record, write down the corresponding inhibition at 10 µM.
Give the value, in units of %, as a plain number.

-- ask Give inhibition at 10 µM for this entry on HIV protease (Human immunodeficiency virus type 1 group M subtype B, UniProt P04585): CC(C)(C)OC(=O)N[C@@H](Cc1ccccc1)[C@H](O)CNC[C@@H](O)[C@H](Cc1ccccc1)NC(=O)OC(C)(C)c1ccccc1 [Compound 156]
-- reply 85

-- ask System HIV protease (Human immunodeficiency virus type 1 group M subtype B, UniProt P04585). Read-out inhibition at 10 µM. Item CC(C)(C)OC(=O)N1CCC[C@H]1C(O)CNCC(O)[C@@H]1CCCN1C(=O)OC(C)(C)C (single isomer, unassigned) [Compound 7] . Report value.
-- reply 8

-- ask Supply inhibition at 10 µM measured with HIV protease (Human immunodeficiency virus type 1 group M subtype B, UniProt P04585) for CC(C)(C)OC(=O)N[C@@H](Cc1ccccc1)[C@H](O)CNC[C@@H](O)[C@H](Cc1ccccc1)NC(=O)[C@@H](NC=O)C(C)(C)C [Compound 234] .
-- reply 100
